Tested on: Escherichia coli TOP10;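 also: peptides expressed intracellularly from a pBAD plasmid library in pooled LB shake-flask culture, induced with 0.3% L-arabinose, DNA abundance read by NGS, three biological replicates, DESeq2 with apeglm shrinkage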
procedure.details: shrunken log2 fold change of peptide-encoding DNA abundance (4.5 h post-induction vs induction); higher = less antimicrobial activity (less host growth inhibition)
condition.description: time post-induction: 4.5 h; library: site-saturation at positions 5, 18, 19, 20
Items are presented alongside their recorded shrunken log2 fold change.
attribute.measured: shrunken log2 fold change

[[record]]
residues = "RRIRCRPPRLPRPRPRPTTGPRP"
reported = -0.0721

[[record]]
residues = "RRIRLRPPRLPRPRPRPIDHPRP"
reported = -0.154

[[record]]
residues = "RRIRNRPPRLPRPRPRPLSNPRP"
reported = -0.386

[[record]]
residues = "RRIRKRPPRLPRPRPRPHQAPRP"
reported = -0.137

[[record]]
residues = "RRIRNRPPRLPRPRPRPRMEPRP"
reported = -0.0307

[[record]]
residues = "RRIRMRPPRLPRPRPRPQFYPRP"
reported = -0.263

[[record]]
residues = "RRIRYRPPRLPRPRPRPEVRPRP"
reported = -0.187

[[record]]
residues = "RRIRCRPPRLPRPRPRPSSIPRP"
reported = -0.565

[[record]]
residues = "RRIRHRPPRLPRPRPRPEVAPRP"
reported = -0.00165

[[record]]
residues = "RRIRLRPPRLPRPRPRPWVQPRP"
reported = -0.118

[[record]]
residues = "RRIRDRPPRLPRPRPRPYQSPRP"
reported = -1.12

[[record]]
residues = "RRIRTRPPRLPRPRPRPGNPPRP"
reported = -0.34

[[record]]
residues = "RRIRPRPPRLPRPRPRPEMIPRP"
reported = -0.0258

[[record]]
residues = "RRIRIRPPRLPRPRPRPNQYPRP"
reported = -0.681

[[record]]
residues = "RRIRWRPPRLPRPRPRPPMVPRP"
reported = 0.104


Reference source: the supplement of paper PMC9112550
